test system: Molm13 cells; test: Cell Glo Viability Assay (Luminescence), Molm13; assay type: cell-based; conditions: Homo sapiens, MOLM-13, 120 h, 5 days, CellTiter-Glo, read-out: Cellular EC50 (μM) Molm13
Where a name gives a salt, the structure may show the parent alone.
Kindly supply the reported EC50 values for the records listed here.
Numbers only, in µM.

Use the examples below as a reference point.
{"compound": "N[C@H]1CC[C@H](Nc2nccn3c(-c4cccc(NCc5cccs5)n4)cnc23)CC1 [Example 87, hydrochloride]", "assay_endpoint": "EC50", "value_measured": 0.074}
{"compound": "CN1CCN(c2nccn3c(-c4ccnc(NC(CN)c5ccsc5)n4)cnc23)CC1 (stereo not shown) [Example 75, hydrochloride]", "assay_endpoint": "EC50", "value_measured": 1.69}
{"compound": "N[C@H]1CC[C@H](Nc2nccn3c(-c4cccc(NCc5ccc(Cl)cc5)n4)cnc23)CC1 [Example 86, hydrochloride]", "assay_endpoint": "EC50", "value_measured": 0.353}
{"compound": "N[C@H]1CC[C@H](Nc2nccn3c(-c4ccnc(NCc5ccccc5Cl)n4)cnc23)CC1 [Example 83, hydrochloride]", "assay_endpoint": "EC50", "value_measured": 0.021}
{"compound": "Clc1cccc(CNc2nccc(-c3cnc4c(NCCN5CCOCC5)nccn34)n2)c1 [Example 89, hydrochloride]", "assay_endpoint": "EC50", "value_measured": 0.075}

Report EC50 for every entry below.
1. CN1CCN(c2nccn3c(-c4ccnc(NC(CN)c5cccc(Cl)c5)n4)cnc23)CC1 (stereo not shown) [Example 79, hydrochloride]
2. N[C@H]1CC[C@H](Nc2nccn3c(-c4ccnc(NCc5cccc(Cl)c5)n4)cnc23)CC1 [Example 67, hydrochloride]

1. 1.97
2. 0.049

Origin of values: patent US8673905B2
